Species: Homo sapiens
Assay: Stability in human plasma assessed as hydrolysis half life
assay-readout: half-life (min)

Prompt: Recorded half-life for CC(C)Cc1ccc(C(C)C(=O)OCn2c(=O)oc3ccc(Cl)cc32)cc1 (configuration not stated) , please?
Response: 37

Prompt: Recorded half-life for COc1ccc2cc(C(C)C(=O)OCn3c(=O)oc4ccc(Cl)cc43)ccc2c1 (configuration not stated) , please?
Response: 34
